Cited source: ChEMBL document CHEMBL3227960

log10 of IC50 by entry:
Target: Sodium-dependent dopamine transporter (Rattus norvegicus, UniProt P23977)
Sequence (P23977 whole entry): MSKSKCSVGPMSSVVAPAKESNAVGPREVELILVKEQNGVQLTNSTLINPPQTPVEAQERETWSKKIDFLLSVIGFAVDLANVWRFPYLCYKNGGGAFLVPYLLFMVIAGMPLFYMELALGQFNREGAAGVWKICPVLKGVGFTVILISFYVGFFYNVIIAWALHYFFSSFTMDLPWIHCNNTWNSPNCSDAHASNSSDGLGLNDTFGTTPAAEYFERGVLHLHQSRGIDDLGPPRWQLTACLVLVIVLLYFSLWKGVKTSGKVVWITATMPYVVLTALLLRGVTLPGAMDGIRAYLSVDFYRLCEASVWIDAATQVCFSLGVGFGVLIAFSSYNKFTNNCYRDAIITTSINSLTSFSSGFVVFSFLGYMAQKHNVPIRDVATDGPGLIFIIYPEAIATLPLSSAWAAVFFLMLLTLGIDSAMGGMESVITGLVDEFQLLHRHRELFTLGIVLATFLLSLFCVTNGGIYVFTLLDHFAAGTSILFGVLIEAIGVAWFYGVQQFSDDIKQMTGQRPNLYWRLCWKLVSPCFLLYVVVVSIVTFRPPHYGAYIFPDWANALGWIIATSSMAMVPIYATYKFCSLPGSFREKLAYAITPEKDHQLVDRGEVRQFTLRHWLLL
Experiment: Inhibition of [3H]dopamine reuptake at DAT in Sprague-Dawley rat brain striatal synaptosomes incubated for 5 mins prior to [3H]dopamine addition measured after 3 mins by scintillation counting analysis
Conditions: read-out: I50
The base-10 logarithm of IC50, taken with IC50 in µM, is what appears here.

Observe how each entry below is paired with its result.
{"smiles.repr": "CCN(CCCl)Cc1ccc(C)cc1", "target": "Sodium-dependent dopamine transporter (Rattus norvegicus, UniProt P23977)", "log10 of IC50": 1.89}
{"smiles.repr": "CCN(CCO)Cc1cccc(C)c1", "target": "Sodium-dependent dopamine transporter (Rattus norvegicus, UniProt P23977)", "log10 of IC50": 2.40}
{"smiles.repr": "CCN(CCCl)Cc1ccccc1OC", "target": "Sodium-dependent dopamine transporter (Rattus norvegicus, UniProt P23977)", "log10 of IC50": 2.48}
{"smiles.repr": "CCN(CCCl)Cc1cccc(C)c1", "target": "Sodium-dependent dopamine transporter (Rattus norvegicus, UniProt P23977)", "log10 of IC50": 1.46}
{"smiles.repr": "CCN(CCCl)Cc1cccc(OC)c1", "target": "Sodium-dependent dopamine transporter (Rattus norvegicus, UniProt P23977)", "log10 of IC50": 2.10}
{"smiles.repr": "CCN(CCO)Cc1ccccc1C", "target": "Sodium-dependent dopamine transporter (Rattus norvegicus, UniProt P23977)", "log10 of IC50": 3.02}
{"smiles.repr": "ClCCNCc1ccccc1Br", "target": "Sodium-dependent dopamine transporter (Rattus norvegicus, UniProt P23977)", "log10 of IC50": 2.51}
{"smiles.repr": "CCN(CCCl)Cc1ccccc1Br", "target": "Sodium-dependent dopamine transporter (Rattus norvegicus, UniProt P23977)", "log10 of IC50": 0.77}
{"smiles.repr": "CCN(CCCl)Cc1ccc(OC)cc1", "target": "Sodium-dependent dopamine transporter (Rattus norvegicus, UniProt P23977)", "log10 of IC50": 2.17}

// switching to the query molecule
# log10 of IC50 (molecule: CCN(CCO)Cc1ccccc1Br ) is 2.81

---

Assay: Inhibition of [3H]norepinephrine reuptake at NET in Sprague-Dawley rat brain cortical synaptosomes incubated for 5 mins prior to [3H]norepinephrine addition measured after 3 mins by scintillation counting analysis
Format: subcellular
Settings: read-out: I50
measurement.type: pIC50
The value called pIC50 is obtained by taking minus log10 of the concentration in mol/L.

{"smiles.repr": "CCN(CCCl)Cc1cccc(C)c1", "observed": 6.11}
{"smiles.repr": "CCN(CCCl)Cc1ccc(OC)cc1", "observed": 4.53}
{"smiles.repr": "ClCCNCc1ccccc1Br", "observed": 4.30}
{"smiles.repr": "CCN(CCO)Cc1ccccc1Br", "observed": 4.11}
{"smiles.repr": "CCN(CCCl)Cc1cccc(OC)c1", "observed": 4.63}
{"smiles.repr": "CCN(CCCl)Cc1ccccc1OC", "observed": 4.51}
{"smiles.repr": "CCN(CCO)Cc1cccc(C)c1", "observed": 4.31}
{"smiles.repr": "CCN(CCCl)Cc1ccc(C)cc1", "observed": 5.52}
{"smiles.repr": "CCN(CCCl)Cc1ccccc1Br", "observed": 7.30}

Now for another entry.
Record summary for CCN(CCO)Cc1ccccc1C : reported pIC50 = 3.86
